Listing: BW Luc assay soluble 7.3 nM IgG, FOC of selected binders
testedTarget: human TREM2/DAP12 fusion protein (human, UniProt O43914 41-113, limits assumed)
Sequence (O43914 other isoform, or with tags, fused parts or gaps limits assumed): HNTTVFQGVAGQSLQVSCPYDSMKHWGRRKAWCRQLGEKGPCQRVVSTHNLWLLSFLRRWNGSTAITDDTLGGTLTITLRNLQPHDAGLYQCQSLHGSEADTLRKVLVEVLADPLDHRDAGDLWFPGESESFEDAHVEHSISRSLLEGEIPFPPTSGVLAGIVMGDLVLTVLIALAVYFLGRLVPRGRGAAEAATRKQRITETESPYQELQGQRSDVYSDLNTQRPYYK
experimentDescription: cell-based or functional assay
Field format: number, assumed FOC, no unit text.

Study these solved cases before continuing.
- binder: "AL2p-51 (antibody, V domains shown, Fab and IgG formats under one id) VH: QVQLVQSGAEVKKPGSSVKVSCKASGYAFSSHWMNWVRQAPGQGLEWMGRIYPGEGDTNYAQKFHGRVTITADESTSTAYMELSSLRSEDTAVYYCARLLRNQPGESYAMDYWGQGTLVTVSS VL: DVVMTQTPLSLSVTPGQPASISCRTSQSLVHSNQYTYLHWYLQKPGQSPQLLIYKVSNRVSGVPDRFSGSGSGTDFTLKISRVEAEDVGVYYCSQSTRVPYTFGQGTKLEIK"
  BW Luc assay soluble 7.3 nM IgG, FOC [FOC]: 2.3
- binder: "AL2p-53 (antibody, V domains shown, Fab and IgG formats under one id) VH: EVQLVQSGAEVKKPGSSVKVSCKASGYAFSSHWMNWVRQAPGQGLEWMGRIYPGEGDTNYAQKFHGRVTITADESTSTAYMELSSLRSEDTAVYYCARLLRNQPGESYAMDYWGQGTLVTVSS VL: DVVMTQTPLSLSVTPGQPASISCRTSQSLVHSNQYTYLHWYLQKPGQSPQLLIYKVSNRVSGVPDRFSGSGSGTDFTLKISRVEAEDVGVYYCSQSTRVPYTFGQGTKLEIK"
  BW Luc assay soluble 7.3 nM IgG, FOC [FOC]: 2.32
- binder: "AL2p-50 (antibody, V domains shown, Fab and IgG formats under one id) VH: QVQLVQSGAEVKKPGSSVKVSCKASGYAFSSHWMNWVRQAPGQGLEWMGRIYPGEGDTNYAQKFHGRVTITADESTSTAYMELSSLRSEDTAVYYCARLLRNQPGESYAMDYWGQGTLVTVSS VL: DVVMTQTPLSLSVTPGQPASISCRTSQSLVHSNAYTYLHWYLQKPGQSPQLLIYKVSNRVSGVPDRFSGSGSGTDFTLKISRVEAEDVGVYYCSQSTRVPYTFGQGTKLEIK"
  BW Luc assay soluble 7.3 nM IgG, FOC [FOC]: 2.07
- binder: "AL2p-48 (antibody, V domains shown, Fab and IgG formats under one id) VH: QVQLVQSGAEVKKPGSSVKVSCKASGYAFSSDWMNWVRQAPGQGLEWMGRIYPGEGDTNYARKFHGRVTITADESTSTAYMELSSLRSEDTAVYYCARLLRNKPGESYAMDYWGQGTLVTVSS VL: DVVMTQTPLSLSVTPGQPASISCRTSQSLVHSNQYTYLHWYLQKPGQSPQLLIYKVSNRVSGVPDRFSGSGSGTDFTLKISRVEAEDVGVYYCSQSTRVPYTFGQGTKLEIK"
  BW Luc assay soluble 7.3 nM IgG, FOC [FOC]: 3.65
- binder: "AL2p-43 (antibody, V domains shown, Fab and IgG formats under one id) VH: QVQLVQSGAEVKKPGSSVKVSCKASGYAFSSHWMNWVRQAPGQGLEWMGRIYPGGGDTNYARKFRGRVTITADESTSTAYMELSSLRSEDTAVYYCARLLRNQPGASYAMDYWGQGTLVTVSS VL: GVVMTQTPLSLSVTPGQPASISCRSSRSLVHSNRYTYLHWYLQKPGQSPQLLIYKVSNRRSGVPDRFSGSGSGTDFTLKISRVEAEDVGVYYCSQSTRVPYTFGQGTKLEIK"
  BW Luc assay soluble 7.3 nM IgG, FOC [FOC]: 8.84

Let me know recorded BW Luc assay soluble 7.3 nM IgG, FOC for AL2p-57 (antibody, V domains shown, Fab and IgG formats under one id) VH: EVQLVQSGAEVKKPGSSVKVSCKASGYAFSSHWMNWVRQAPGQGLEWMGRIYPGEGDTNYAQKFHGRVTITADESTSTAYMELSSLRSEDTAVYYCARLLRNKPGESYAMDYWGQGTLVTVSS VL: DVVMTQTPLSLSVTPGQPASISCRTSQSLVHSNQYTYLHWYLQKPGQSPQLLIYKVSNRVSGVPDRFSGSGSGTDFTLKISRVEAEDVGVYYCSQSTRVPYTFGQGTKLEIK , thanks. 2.03
